# Test description: Stability in liver microsomes
# Format: in vitro ADME
# Assay setup: 2 μM peptidomimetic, human liver microsomes, 37° C., 24 h
Property: % degradation of peptidomimetics in 24 h when incubated with liver microsomes
// return the numeric value with its unit appended

Illustrative cases are given below, each with its answer.
• CCc1cc(OC)ccc1-c1ccc(CC(NC(=O)[C@H](CC(=O)O)NC(=O)[C@H](CO)NC(=O)[C@@H](NC(=O)C(C)(Cc2ccccc2F)NC(=O)[C@@H](NC(=O)CNC(=O)C(CCC#N)NC(=O)C(C)(C)NC(=O)[C@@H](N)Cc2c[nH]cn2)[C@H](C)O)[C@@H](C)O)C(=O)NC(CCCc2ccccc2F)C(N)=O)cc1 (single isomer, unassigned) = 82%
• CCc1cc(OC)ccc1-c1ccc(CC(NC(=O)[C@H](CC(=O)O)NC(=O)[C@H](CO)NC(=O)[C@@H](NC(=O)C(C)(Cc2ccccc2F)NC(=O)[C@@H](NC(=O)CNC(=O)C(CCC#N)NC(=O)C(C)(C)NC(=O)[C@@H](N)Cc2c[nH]cn2)[C@H](C)O)[C@H](C)O)C(=O)NC(CCCc2ccccc2F)C(N)=O)cc1 (single isomer, unassigned) = 84%
• CCc1cc(OC)ccc1-c1ccc(CC(NC(=O)[C@H](CC(=O)O)NC(=O)[C@H](CO)NC(=O)[C@@H](NC(=O)C(C)(Cc2ccccc2F)NC(=O)[C@@H](NC(=O)CNC(=O)C(CCC#N)NC(=O)C(C)(C)NC(=O)[C@@H](N)Cc2c[nH]cn2)[C@H](C)O)[C@@H](C)O)C(=O)NC(CCCc2ccccc2)C(N)=O)cc1 (single isomer, unassigned) = 84%
• CCc1cc(OC)ccc1-c1ccc(CC(NC(=O)[C@H](CC(=O)O)NC(=O)[C@H](CO)NC(=O)[C@@H](NC(=O)C(C)(Cc2ccccc2F)NC(=O)[C@@H](NC(=O)CNC(=O)[C@H](CC(C(F)(F)F)C(F)(F)F)NC(=O)C(C)(C)NC(=O)[C@@H](N)Cc2c[nH]cn2)[C@H](C)O)[C@@H](C)O)C(=O)NC(CCCc2ccccc2)C(N)=O)cc1 (stereo partly drawn) = 100%
• CCc1cc(OC)ccc1-c1ccc(CC(CNC(CCCc2ccccc2)C(N)=O)NC[C@H](CC(=O)O)NC(=O)[C@H](CO)NC(=O)[C@@H](NC(=O)C(C)(Cc2ccccc2F)NC(=O)[C@@H](NC(=O)CNC(=O)[C@H](CCC(N)=O)NC(=O)C(C)(C)NC(=O)[C@@H](N)Cc2c[nH]cn2)[C@H](C)O)[C@H](C)O)cc1 (single isomer, unassigned) = 84%

// below: % degradation of peptidomimetics in 24 h when incubated with liver microsomes requested for another compound
Given item CCc1cc(OC)ccc1-c1ccc(CC(NC(=O)[C@H](CC(=O)O)NC(=O)[C@H](CO)NC(=O)[C@@H](NC(=O)C(C)(Cc2ccccc2F)NC(=O)[C@@H](NC(=O)CNC(=O)C(CCC#N)NC(=O)C(C)(C)NC(=O)[C@@H](N)Cc2c[nH]cn2)[C@H](C)O)[C@H](C)O)C(=S)NC(CCCc2ccccc2F)C(N)=O)cc1 (single isomer, unassigned) , the value recorded as its % degradation of peptidomimetics in 24 h when incubated with liver microsomes is 78%
